Measured values drawn from the kinase profiling compilation of Christmann-Franck et al. (2016) for this set.

- target of assay: PTK2 (human) (UniProt Q05397)
- Sequence (Q05397 whole entry, looked up): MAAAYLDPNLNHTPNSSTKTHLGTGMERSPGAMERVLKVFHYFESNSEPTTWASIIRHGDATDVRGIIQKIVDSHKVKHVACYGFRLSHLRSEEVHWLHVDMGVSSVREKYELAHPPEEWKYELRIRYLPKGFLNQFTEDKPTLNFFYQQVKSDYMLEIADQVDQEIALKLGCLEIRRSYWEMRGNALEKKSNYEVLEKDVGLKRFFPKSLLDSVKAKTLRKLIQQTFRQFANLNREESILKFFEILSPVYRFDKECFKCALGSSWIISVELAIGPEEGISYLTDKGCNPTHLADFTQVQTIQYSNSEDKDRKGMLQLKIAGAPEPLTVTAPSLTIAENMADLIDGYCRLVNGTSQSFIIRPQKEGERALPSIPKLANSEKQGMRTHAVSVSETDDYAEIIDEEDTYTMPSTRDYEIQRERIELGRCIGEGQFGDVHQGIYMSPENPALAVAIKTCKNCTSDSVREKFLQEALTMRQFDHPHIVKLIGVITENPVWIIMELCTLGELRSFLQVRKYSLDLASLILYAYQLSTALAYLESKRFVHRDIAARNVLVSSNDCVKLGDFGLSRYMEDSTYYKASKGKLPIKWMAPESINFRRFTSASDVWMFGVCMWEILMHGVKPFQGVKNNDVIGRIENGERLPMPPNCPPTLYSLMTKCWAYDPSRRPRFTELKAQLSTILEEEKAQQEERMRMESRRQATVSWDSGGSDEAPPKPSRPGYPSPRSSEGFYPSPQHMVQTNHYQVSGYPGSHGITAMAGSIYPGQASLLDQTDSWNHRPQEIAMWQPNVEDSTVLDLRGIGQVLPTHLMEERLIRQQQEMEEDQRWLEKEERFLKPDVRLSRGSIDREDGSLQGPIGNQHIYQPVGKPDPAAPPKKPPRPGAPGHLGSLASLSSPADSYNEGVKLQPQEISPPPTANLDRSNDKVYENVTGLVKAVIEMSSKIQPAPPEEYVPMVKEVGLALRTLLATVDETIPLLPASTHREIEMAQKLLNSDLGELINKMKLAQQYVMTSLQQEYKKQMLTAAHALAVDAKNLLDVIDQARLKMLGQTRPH
- method summary: radiometric filter-binding kinase assay, Kinase HotSpot
- experimental parameters: compound 0.5 µM; ATP 10 µM
property name: residual activity (%)
Give the quantity in %, number only.

O=c1c2ccccc2[nH]c(=S)n1CCN1CCC(=C(c2ccc(F)cc2)c2ccc(F)cc2)CC1: 105
O=C1NC(=O)c2c1c1c3ccccc3[nH]c1c1[nH]c3cc(Br)ccc3c21: 91.8
O=S(=O)(NCCNC/C=C/c1ccc(Br)cc1)c1cccc2cnccc12: 64.1

Please give measured residual activity of the following entry: Cn1cc(/C=C2\C(=O)Nc3ccc(S(N)(=O)=O)cc32)c2ccccc21
94.1

Please give measured residual activity of the following entry: FC(F)(F)c1ccc(/C=C/c2nc(COc3ccc(CCCCn4ccnn4)cc3)co2)cc1
101

Please give measured residual activity of the following entry: CCc1nc(-c2ccc(OC)cc2)[nH]c1-c1ccncc1
101

Please give measured residual activity of the following entry: O=C(O)c1ccc2c3c1cccc3c(=O)n1c3ccccc3nc21
97.5

Please give measured residual activity of the following entry: N#CCCc1ccc2c(c1)-c1[nH]c3ccc([N+](=O)[O-])cc3c1CC(=O)N2
82.2

Please give measured residual activity of the following entry: c1ccc(-c2cnc(Nc3ccc(OCCN4CCCC4)cc3)s2)cc1
98.3

Please give measured residual activity of the following entry: COc1cccc(-c2cc(=O)c3ccccc3o2)c1N
98.2

* * *

- target of assay: MAPK12 (human)
- method summary: radiometric filter-binding kinase assay, Kinase HotSpot
- experimental parameters: compound 0.5 µM; ATP 10 µM
property name: residual activity (%)
Give the quantity in %, number only.

O=c1c2ccccc2[nH]c(=S)n1CCN1CCC(=C(c2ccc(F)cc2)c2ccc(F)cc2)CC1: 99
FC(F)(F)c1ccc(/C=C/c2nc(COc3ccc(CCCCn4ccnn4)cc3)co2)cc1: 98.3
O=C1NC(=O)c2cc(Nc3ccc(F)cc3)c(Nc3ccc(F)cc3)cc21: 93.6

Read the next record carefully.
Please give measured residual activity of the following entry: N#Cc1c(NC(=O)c2cccc3ccccc23)sc2c1CCCC2
95.6

* * *

- target of assay: UniProtKB P29322
- Sequence (P29322 whole entry, looked up): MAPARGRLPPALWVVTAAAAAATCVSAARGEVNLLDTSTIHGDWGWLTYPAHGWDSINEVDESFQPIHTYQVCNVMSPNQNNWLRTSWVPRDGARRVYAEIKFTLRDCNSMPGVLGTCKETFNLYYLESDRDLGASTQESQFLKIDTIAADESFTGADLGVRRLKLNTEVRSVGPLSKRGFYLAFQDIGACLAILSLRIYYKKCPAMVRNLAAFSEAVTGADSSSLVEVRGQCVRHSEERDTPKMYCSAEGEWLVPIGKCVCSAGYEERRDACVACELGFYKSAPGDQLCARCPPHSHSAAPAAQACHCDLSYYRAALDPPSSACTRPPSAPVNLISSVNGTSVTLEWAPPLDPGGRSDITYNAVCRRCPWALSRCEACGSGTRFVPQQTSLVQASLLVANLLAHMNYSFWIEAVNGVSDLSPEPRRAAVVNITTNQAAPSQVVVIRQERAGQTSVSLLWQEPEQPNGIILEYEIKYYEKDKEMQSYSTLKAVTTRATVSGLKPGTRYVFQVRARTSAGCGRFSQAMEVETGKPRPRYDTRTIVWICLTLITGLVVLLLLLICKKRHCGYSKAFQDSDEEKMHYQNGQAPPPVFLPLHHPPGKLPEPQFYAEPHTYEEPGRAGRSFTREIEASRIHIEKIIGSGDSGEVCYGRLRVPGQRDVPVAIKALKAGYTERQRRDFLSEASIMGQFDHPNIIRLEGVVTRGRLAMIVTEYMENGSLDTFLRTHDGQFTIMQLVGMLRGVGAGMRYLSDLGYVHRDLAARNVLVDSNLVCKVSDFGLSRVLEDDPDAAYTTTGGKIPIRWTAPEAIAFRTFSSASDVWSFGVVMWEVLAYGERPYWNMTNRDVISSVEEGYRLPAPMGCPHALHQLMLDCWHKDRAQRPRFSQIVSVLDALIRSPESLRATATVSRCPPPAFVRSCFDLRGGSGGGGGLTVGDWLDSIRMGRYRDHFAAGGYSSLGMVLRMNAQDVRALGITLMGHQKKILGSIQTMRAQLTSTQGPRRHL
- method summary: radiometric filter-binding kinase assay, Kinase HotSpot
- experimental parameters: compound 0.5 µM; ATP 10 µM
property name: residual activity (%)
Give the quantity in %, number only.

Known results for compounds:
O=C(O)c1ccc2c3c1cccc3c(=O)n1c3ccccc3nc21: 89.4
COc1cc2ncnc(Nc3ccc(O)c(Br)c3)c2cc1OC: 88.3
CCOc1cc2ncnc(Nc3cccc(Br)c3)c2cc1OCC: 87.3
COc1cc2c(cc1OC)-c1[nH]nc(Nc3cccc(F)c3)c1C2: 94.2
c1ccc(-c2cnc(Nc3ccc(OCCN4CCCC4)cc3)s2)cc1: 96.2

Please give measured residual activity of the following entry: COc1cc2c(N3CCN(C(=O)Nc4ccc(OC(C)C)cc4)CC3)ncnc2cc1OCCCN1CCCCC1
96.6

Please give measured residual activity of the following entry: N/C(=N\N=C/c1ccc(-c2cccc([N+](=O)[O-])c2)o1)N[N+](=O)[O-]
102

Please give measured residual activity of the following entry: O=S(=O)(NCCNC/C=C/c1ccc(Br)cc1)c1cccc2cnccc12
118

Please give measured residual activity of the following entry: O=c1[nH]c2ccccc2n1C1CCN(Cc2ccc(-c3nc4cc5[nH]cnc5cc4nc3-c3ccccc3)cc2)CC1
106

Please give measured residual activity of the following entry: O=c1c2ccccc2[nH]c(=S)n1CCN1CCC(=C(c2ccc(F)cc2)c2ccc(F)cc2)CC1
102
